# Test system: U937
# MEASUREMENT PROTOCOL: Cell Titer Glo cell viability assay, 48 h
# Type: cell-based, human
# CONDITION LABEL: Homo sapiens, U-937; 48 h; mean of 2 independent experiments; 0 = less than 10 nM, cell line not given; read-out: IC50 of inhibitors on cell lines, m (mean)
MEASURED PROPERTY: IC50

Data point: OCCC#Cc1nc(-c2ccc(F)cc2)c(-c2ccncc2)n1CCCc1ccccc1 ; IC50 = 8.05 µM

Data point: Oc1cccc(-c2nc(N3CCOCC3)c3oc4ncccc4c3n2)c1 ; IC50 = 0.26 µM

More entries:
Data point: O=C(Nc1cccc(Cl)c1)Nc1ncc(CCNc2ncnc3ccsc23)s1 ; IC50 = 5.04 µM

###

IC50 reference
# System: MOLT4
# MEASUREMENT PROTOCOL: Cell Titer Glo cell viability assay, 48 h
# Type: cell-based, human
# CONDITION LABEL: Homo sapiens, MOLT-4; 48 h; mean of 2 independent experiments; 0 = less than 10 nM, cell line not given; read-out: IC50 of inhibitors on cell lines, m (mean)

// below: answered compounds
Data point: CC(C)[C@H](CO)Nc1nc(Nc2ccc(C(=O)O)c(Cl)c2)c2ncn(C(C)C)c2n1 ; IC50 = > 10 µM

Data point: CN(C)CCOc1cc(-c2cn[nH]c2)ccc1NC(=O)C1COc2ccccc2O1 (stereo not drawn) ; IC50 = > 10 µM

Data point: O=C(Nc1cccc(Cl)c1)Nc1ncc(CCNc2ncnc3ccsc23)s1 ; IC50 = 3.58 µM

Data point: CC(C)(C)c1cnc(CSc2cnc(NC(=O)C3CCNCC3)s2)o1 ; IC50 = 0.29 µM

Data point: Oc1cccc(-c2nc(N3CCOCC3)c3oc4ncccc4c3n2)c1 ; IC50 = 0.21 µM

Data point: Oc1ccc(-c2nc(-c3ccncc3)c(-c3ccc(F)cc3)[nH]2)cc1 ; IC50 = > 10 µM

Data point: Cc1cc(Nc2cc(N3CCN(C)CC3)nc(Sc3ccc(NC(=O)C4CC4)cc3)n2)[nH]n1 ; IC50 = 2.59 µM

Data point: CCc1nc(-c2cccc(C)c2)c(-c2ccnc(NC(=O)c3ccccc3)c2)s1 ; IC50 = > 10 µM

Data point: CCCS(=O)(=O)Nc1ccc(F)c(C(=O)c2c[nH]c3ncc(Cl)cc23)c1F ; IC50 = > 10 µM

Data point: CNC(=O)c1cc(Oc2ccc(NC(=O)Nc3ccc(Cl)c(C(F)(F)F)c3)cc2)ccn1 ; IC50 = > 10 µM

More entries:
Data point: Cc1[nH]c(/C=C2\C(=O)Nc3ccccc32)c(C)c1CCC(=O)O ; IC50 = > 10 µM

Data point: COc1nccc(-c2c(-c3ccc(F)cc3)ncn2C2CCNCC2)n1 ; IC50 = > 10 µM

###

IC50 reference
# System: MOLT4
# MEASUREMENT PROTOCOL: Cell Titer Glo cell viability assay, 48 h
# Type: cell-based, human
# CONDITION LABEL: Homo sapiens, MOLT-4; 48 h; mean of 2 independent experiments; 0 = less than 10 nM, cell line not given; read-out: IC50 of inhibitors on cell lines, m (mean)
# Method: The activity of the kinase inhibitor collection against a panel of human leukemia cell lines was determined in cell viability assays run over 48 h using the Cell Titer Glo reagent. Figure 1 Effects of kinase inhibition on the proliferation of leukemia cells A. Human leukemia cell lines were treated with duplicate serial dilutions of kinase inhibitors and the effect on cell viability was determined by Cell Titer Glo assay after 48 hours. […]
The reply should be a number in µM, with the unit left off.

Data point: CN(C)C/C=C/C(=O)Nc1cc2c(Nc3ccc(F)c(Cl)c3)ncnc2cc1O[C@H]1CCOC1 ; IC50 = 2.37

More entries:
Data point: CN(C)CCOc1ccc(-c2nc(-c3ccncc3)c(-c3ccc4c(c3)CC/C4=N\O)[nH]2)cc1 ; IC50 = 5.93

Data point: COC(=O)c1ccc2c(c1)NC(=O)/C2=C(\Nc1ccc(N(C)C(=O)CN2CCN(C)CC2)cc1)c1ccccc1 ; IC50 = 3.69

Data point: COc1cc2c(Nc3ccc(Br)cc3F)ncnc2cc1OCC1CCN(C)CC1 ; IC50 = 6.79

Data point: CCN(CC)CCNC(=O)c1c(C)[nH]c(/C=C2\C(=O)Nc3ccc(F)cc32)c1C ; IC50 = 2.54

Data point: COc1cc2c(N3CCN(C(=O)Nc4ccc(OC(C)C)cc4)CC3)ncnc2cc1OCCCN1CCCCC1 ; IC50 = 9.77

###

# Test system: primary murine bone-marrow neutrophils
# MEASUREMENT PROTOCOL: Live cell imaging viability of primary bone-marrow neutrophils
# CONDITION LABEL: G-CSF- or GM-CSF-primed; inhibitors at 1 μM; over 24 hours
MEASURED PROPERTY: effect on mouse neutrophil viability (words)

Data point: C[C@@H]1CCN(C(=O)CC#N)C[C@@H]1N(C)c1ncnc2[nH]ccc12 [CP690550] ; effect on mouse neutrophil viability (words) = did not

Data point: N#CCNC(=O)c1ccc(-c2ccnc(Nc3ccc(N4CCOCC4)cc3)n2)cc1 [CYT387] ; effect on mouse neutrophil viability (words) = did not

###

# Test system: KU-812
# MEASUREMENT PROTOCOL: Cell Titer Glo cell viability assay, 48 h
# Assay type: cell-based, human
# CONDITION LABEL: 48 h; mean of 2 independent experiments; 0 = less than 10 nM, cell line not given; read-out: IC50 of inhibitors on cell lines, m (mean)
MEASURED PROPERTY: IC50 (µM)
The reply should be a number in µM, with the unit left off.

// below: answered compounds
Data point: O=C1NC(=O)/C(=C/c2cccc(C(F)(F)F)c2)S1 ; IC50 = 4.54

Data point: Nc1ccc(C(=O)Nc2cccc(-c3nc(N4CCOCC4)c4oc5ncccc5c4n3)c2)cn1 ; IC50 = 4.28

Data point: CN(c1ccccc1CNc1nc(Nc2ccc3c(c2)CC(=O)N3)ncc1C(F)(F)F)S(C)(=O)=O ; IC50 = 5.24

Data point: CC(=O)Nc1ccc([C@H](C)C(=O)Nc2ncc(C(C)C)s2)cc1 ; IC50 = 3.93

Data point: CC1=C(C(=O)Nc2cc3cn[nH]c3cc2F)C(c2ccc(C(F)(F)F)cc2)CC(=O)N1 (centres unmarked) ; IC50 = 2.11

Data point: Cc1c[nH]c(/C=C2\C(=O)Nc3ccccc32)c1CCC(=O)O ; IC50 = 9.28

Consider now this further compound.
Data point: Cc1ccc([N+](=O)[O-])cc1S(=O)(=O)N(C)/N=C/c1cnc2ccc(Br)cn12 ; IC50 = 0.14

###

# Test system: U937
# MEASUREMENT PROTOCOL: Cell Titer Glo cell viability assay, 48 h
# Type: cell-based, human
# CONDITION LABEL: Homo sapiens, U-937; 48 h; mean of 2 independent experiments; 0 = less than 10 nM, cell line not given; read-out: IC50 of inhibitors on cell lines, m (mean)
pIC50 reference
As a rule, pIC50 stands for the negative log10 of the concentration, concentration in M.

// below: answered molecules
Data point: COC(=O)c1ccc2c(c1)NC(=O)/C2=C(\Nc1ccc(N(C)C(=O)CN2CCN(C)CC2)cc1)c1ccccc1 ; pIC50 = 5.20

Data point: Cc1cc(Nc2cc(N3CCN(C)CC3)nc(Sc3ccc(NC(=O)C4CC4)cc3)n2)[nH]n1 ; pIC50 = 5.26

Data point: Oc1ccc(-c2nc(-c3ccncc3)c(-c3ccc(F)cc3)[nH]2)cc1 ; pIC50 = 5.18

Data point: CCCS(=O)(=O)Nc1ccc(F)c(C(=O)c2c[nH]c3ncc(Cl)cc23)c1F ; pIC50 = 5.07

Data point: CN(C)CCOc1ccc(-c2nc(-c3ccncc3)c(-c3ccc4c(c3)CC/C4=N\O)[nH]2)cc1 ; pIC50 = 5.47

Data point: CCN(CC)CCNC(=O)c1c(C)[nH]c(/C=C2\C(=O)Nc3ccc(F)cc32)c1C ; pIC50 = 5.94

More entries:
Data point: CCc1nc(-c2cccc(C)c2)c(-c2ccnc(NC(=O)c3ccccc3)c2)s1 ; pIC50 = 5.39

Data point: CN(C)C/C=C/C(=O)Nc1cc2c(Nc3ccc(F)c(Cl)c3)ncnc2cc1O[C@H]1CCOC1 ; pIC50 = 5.69

Data point: COc1cc2c(N3CCN(C(=O)Nc4ccc(OC(C)C)cc4)CC3)ncnc2cc1OCCCN1CCCCC1 ; pIC50 = 5.13

###

# Test system: HL-60
# MEASUREMENT PROTOCOL: Cell Titer Glo cell viability assay, 48 h
# Format: cell-based, human
# CONDITION LABEL: 48 h; mean of 2 independent experiments; 0 = less than 10 nM, cell line not given; read-out: IC50 of inhibitors on cell lines, m (mean)
pIC50: −log10 of the molar value.
pIC50 reference

// below: answered compounds
Data point: CC1=C(C(=O)Nc2cc3cn[nH]c3cc2F)C(c2ccc(C(F)(F)F)cc2)CC(=O)N1 (stereo not drawn) ; pIC50 = < 5.00

Data point: O=C1NC(=O)/C(=C/c2cccc(C(F)(F)F)c2)S1 ; pIC50 = < 5.00

Data point: Cc1cc(C(C)Nc2ccccc2)c2nc(N3CCOCC3)cc(=O)n2c1 (stereo not drawn) ; pIC50 = < 5.00

More entries:
Data point: Cn1c(=O)c(Oc2ccc(F)cc2F)cc2cnc(NC3CCOCC3)nc21 ; pIC50 = < 5.00

Data point: Cc1c[nH]c(/C=C2\C(=O)Nc3ccccc32)c1CCC(=O)O ; pIC50 = < 5.00

Data point: NC(=O)c1ccc2[nH]ccc2c1 ; pIC50 = < 5.00
